# assay-system: Acetylcholine receptor subunit alpha (Homo sapiens) (UniProt P02708)
# Sequence (P02708 whole entry): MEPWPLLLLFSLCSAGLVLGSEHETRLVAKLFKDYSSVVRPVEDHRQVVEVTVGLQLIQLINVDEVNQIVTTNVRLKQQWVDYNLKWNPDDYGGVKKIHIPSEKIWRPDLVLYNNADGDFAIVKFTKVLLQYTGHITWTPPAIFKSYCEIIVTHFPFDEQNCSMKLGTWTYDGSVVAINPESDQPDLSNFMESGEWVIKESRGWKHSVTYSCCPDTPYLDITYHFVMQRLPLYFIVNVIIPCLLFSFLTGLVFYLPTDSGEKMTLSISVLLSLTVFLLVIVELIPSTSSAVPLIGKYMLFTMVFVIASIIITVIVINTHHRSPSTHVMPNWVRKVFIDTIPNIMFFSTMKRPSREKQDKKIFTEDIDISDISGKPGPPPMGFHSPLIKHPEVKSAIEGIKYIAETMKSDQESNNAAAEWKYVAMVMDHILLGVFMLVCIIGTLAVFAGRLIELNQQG
# condition-label: TE-671
# Description: Proteolytic properties against human muscle type nicotinic Acetylcholine receptor(nAchr) from TE671 cells, expressed as acidity constant (pKa3)
reported-metric: pKa3
Please state the value as a number alone, without comment.

Worked set:
compound	pKa3
CCCC(=O)NC(Cc1ccc(O)cc1)C(=O)NCCCOCCCCNCCCN (centres undefined)	11.3
CCCC(=O)NC(Cc1ccc(O)cc1)C(=O)NCCCNCCCCCCCCN (centres undefined)	11.3
CCCC(=O)NC(Cc1ccc(O)cc1)C(=O)NCCCCCCCCNCCCN (centres undefined)	11.4

Query: Record request: pKa3 value, item CCCC(=O)NC(Cc1ccc(O)cc1)C(=O)NCCCNCCCCOCCCN (centres undefined)
Reply: 10.9
